Origin of measurements: PubChem BioAssay (EPA / NIEHS)

Experiment: TOX21_p53_BLA_p3_viability: Viability Assessment in the Tox21 HCT-116 p53 Agonism Beta-lactamase Assay, Phase 3 (AID 2283593);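 also: cells exposed to compound for 16 h before reading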
Results filed as inconclusive are left out. Activity calls are given as the source filed them. The calls were made as follows: active = hit-call score of the fitted dose curve at least 0.9, where 1 is the maximum; inconclusive = response in the unintended direction; inactive = score below 0.9.
Outcome codes: active, inactive

Cc1ccsc1C(=CCCN1CCC[C@@H](C(=O)O)C1)c1sccc1C ... inactive
COc1ccc2cc(CCC(C)=O)ccc2c1 ... inactive
O=C1C(=O)c2ncccc2-c2cccnc21 ... inactive
CC(=O)Oc1ccc(C2(c3ccc(OC(C)=O)cc3)Oc3ccccc3NC2=O)cc1 ... inactive
Cc1ccc([N+](=O)[O-])c(N)c1 ... inactive
CC(C)C[C@H](NC(=O)CNC(=O)[C@H](Cc1ccc(O)cc1)NC(=O)[C@H](CO)NC(=O)[C@H](Cc1c[nH]c2ccccc12)NC(=O)[C@H](Cc1cnc[nH]1)NC(=O)[C@@H]1CCC(=O)N1)C(=O)N[C@@H](CCCN=C(N)N)C(=O)N1CCC[C@H]1C(=O)NCC(N)=O (stereo in doubt) ... inactive
CO[C@@H]1[C@@H](O[C@@H]2O[C@H](C)[C@@H](O[C@H]3C[C@](C)(O)[C@@H](O)[C@H](C)O3)[C@H](N(C)C)[C@H]2O)[C@H](CC=O)C[C@@H](C)[C@H](O[C@H]2CC[C@H](N(C)C)[C@@H](C)O2)/C=C\C=C\C[C@@H](C)OC(=O)C[C@H]1O ... inactive
Cc1cccc(CN2CCN(C(c3ccccc3)c3ccc(Cl)cc3)CC2)c1 (configuration not stated) ... inactive
CCC[C@H](N[C@@H](C)C(=O)N1[C@H](C(=O)O)C[C@@H]2CCCC[C@@H]21)C(=O)OCC ... inactive
C[C@H]1O[C@@H](O[C@H]2CC[C@@]3(C)[C@H](CC[C@@H]4[C@@H]3C[C@@H](O)[C@]3(C)[C@@H](C5=CC(=O)OC5)CC[C@]43O)C2)C[C@H](O)[C@@H]1O[C@H]1C[C@H](O)[C@H](O[C@H]2C[C@H](O)[C@H](O[C@@H]3O[C@H](CO)[C@@H](O)[C@H](O)[C@H]3O)[C@@H](C)O2)[C@@H](C)O1 ... active
O=P(O)(O)C(Sc1ccc(Cl)cc1)P(=O)(O)O ... inactive
Cn1c(N)c(N=O)c(=O)n(C)c1=O ... inactive
CCCOC(=O)c1ccccc1 ... inactive
Oc1cccc(O)c1O ... inactive
CN(C)CCC(c1ccc(Cl)cc1)c1ccccn1 (configuration not stated) ... inactive
Cc1ccccc1S(N)(=O)=O ... inactive
Cc1cccc(Oc2ccccc2)c1 ... inactive

----------
Experiment: ATG_DR4_LXR_CIS: Attagene CIS-FACTORIAL HepG2 Assay for human Liver X Receptor (LXR), DR4 submotif (AID 2282929)
Condition summary: HepG2 Attagene DR4 cis-reporter, mRNA transcription; actives raise or lower the signal
Calls of active or inactive are those of the source. How the source made its calls: active means hit-call score of the fitted dose curve at least 0.9, where 1 is the maximum; inactive means score below 0.9.
Outcome codes: active, inactive

CCCOCCC ... inactive
NC(=O)c1ccc(N)cc1 ... inactive
CC/C=C\CC1=C(C)CCC1=O ... inactive
Cc1cc(O)cc(C)c1Cl ... active

----------
Test target: Cellular tumor antigen p53 (Homo sapiens)
Experiment: TOX21_p53_BLA_p4_ratio: Tox21 HCT-116 p53 Agonism Beta-lactamase Assay, Ratio, Phase 4 (AID 2283601)
Results filed as inconclusive are left out. Calls of active or inactive are those of the source. The calls were made as follows: active = hit-call score of the fitted dose curve at least 0.9, where 1 is the maximum; inconclusive = response in the unintended direction; inactive = score below 0.9.
Outcome codes: active, inactive

CC(=O)N[C@@H](CS)C(=O)O ... inactive
COc1ccc(OC)c(NC(=O)CC(C)=O)c1 ... inactive
NCCCC[C@H](N[C@@H](CCc1ccccc1)C(=O)O)C(=O)N1CCC[C@H]1C(=O)O ... inactive
O=C=Nc1cccc(C(F)(F)F)c1 ... inactive
Cc1cnc(C(=O)NCCc2ccc(S(=O)(=O)NC(=O)NC3CCCCC3)cc2)cn1 ... inactive
CC(=O)OC[C@H]1O[C@@H](n2ncc(=O)[nH]c2=O)[C@H](OC(C)=O)[C@@H]1OC(C)=O ... active
CO/N=C(\C(=O)N[C@@H]1C(=O)N2C(C(=O)O)=CCS[C@H]12)c1csc(N)n1 ... inactive
O=C(O)c1ccc(S(=O)(=O)N(Cl)Cl)cc1 ... inactive
CC(=O)O[Si](C)(OC(C)=O)OC(C)=O ... inactive
COc1ccccc1N1CCN(CC(O)COc2cccc3ccccc23)CC1 (stereo unspecified) ... inactive
CC(C)CC(=O)O ... inactive
C[C@@H]1CC[C@H]2C(C)(C)[C@H]3C[C@@]12CC[C@@]3(C)O ... inactive
SC1CCCCC1 ... inactive
Cc1ccccc1S(=O)(=O)O ... inactive
Nc1ccc2cc(S(=O)(=O)O)cc(O)c2c1 ... inactive
c1cc(N(CC2CO2)CC2CO2)ccc1Cc1ccc(N(CC2CO2)CC2CO2)cc1 (stereo unspecified) ... active
CCc1cn([C@H]2C[C@H](O)[C@@H](CO)O2)c(=O)[nH]c1=O ... inactive
CN(C)CCCCl ... inactive
CCC(=O)C(=O)CC ... inactive
O=Cc1ccccc1[N+](=O)[O-] ... inactive
CCO[Si](OCC)(OCC)c1ccccc1 ... inactive
O=C1C=CC(=O)N1 ... active
CCOC(=O)[C@H](CCc1ccccc1)N[C@H]1CCCN2CCC[C@@H](C(=O)O)N2C1=O ... inactive
O=C(O)CCC(=O)Nc1ccc(S(=O)(=O)Nc2nccs2)cc1 ... inactive
CN1CCN(C2Cc3ccccc3Sc3ccc(Cl)cc32)CC1 (stereo unspecified) ... inactive
Cc1cc(-n2c(=O)[nH]c(=O)n(C)c2=O)ccc1Oc1ccc(S(=O)(=O)C(F)(F)F)cc1 ... inactive
